Can you tell me Emax for the items I'm about to list?
# study.system: Adrenergic receptor alpha-2 (Homo sapiens) (UniProt P08913+P18825+P18089)
# test.description: Intrinsic activity at alpha2 adrenoceptor in human cortical membrane at 0.0001 to 1000 uM after 2 hrs by [35S]GTPgammaS binding assay relative to UK-14304
# Format: functional, cell membranes
Numeric answer only, unit % assumed.

**Query** Item CCN(C)c1ccc(NC2=NCCN2)cc1 has what recorded Emax?
**Result** 103

**Query** And the next one, CCC(CC)c1ccc(NC(=N)N)cc1 ?
**Result** 89

**Query** Consider next the molecule CNc1ccc(NC(=N)N)cc1 in the same way.
**Result** 87

**Query** What about this molecule? CNc1ccc(NC2=NCCN2)cc1
**Result** 98

**Query** Can you check CCN(C)c1ccc(NC(=N)N)cc1 next?
**Result** 92

**Query** Then CCNc1ccc(NC2=NCCN2)cc1 ?
**Result** 95

* * *

Give EC50 for every item shown.
# study.system: Adrenergic receptor alpha-2 (Homo sapiens, UniProt P08913+P18825+P18089)
# test.description: Agonist activity at alpha2 adrenoceptor in human cortical membrane after 2 hrs by [35S]GTPgammaS binding assay
# Assay type: functional, cell membranes
Report as a plain number; the unit µM is understood.

**Query** Entry CCN(C)c1ccc(NC2=NCCN2)cc1 , system Adrenergic receptor alpha-2 (Homo sapiens, UniProt P08913+P18825+P18089): what EC50 was measured?
**Result** 1.9

**Query** Also, CNc1ccc(NC(=N)N)cc1 please.
**Result** 82.3

**Query** Also CCC(CC)c1ccc(NC(=N)N)cc1 ?
**Result** 38.7

**Query** Can you handle CCNc1ccc(NC2=NCCN2)cc1 next?
**Result** 59.3

**Query** Entry CNc1ccc(NC2=NCCN2)cc1 please
**Result** 61.4

**Query** Further, for CCN(C)c1ccc(NC(=N)N)cc1 ?
**Result** 16.2

* * *

# study.system: Adrenergic receptor alpha-2 (Homo sapiens, UniProt P08913+P18825+P18089)
# test.description: Displacement of [3H]RX821002 from alpha2 adrenoceptor in human prefrontal cortex neural membrane after 30 mins by liquid scintillation spectrometry
# Type: tissue-based
Binary call on pKi: satisfied from 7 upward, not satisfied beneath that.

**Query** Is reported pKi greater than or equal to 7 here: CCNc1ccc(NC(=N)N)cc1
**Result** not satisfied

**Query** Now the compound CCN(C)c1ccc(NC2=NCCN2)cc1
**Result** satisfied

**Query** What do you have for CNc1ccc(NC2=NCCN2)cc1 ?
**Result** satisfied

**Query** Similarly, CCNc1ccc(NC2=NCCN2)cc1 ?
**Result** not satisfied

**Query** Next entry: COC1(C2=NCCN2)COc2ccccc2O1 (configuration not stated)
**Result** satisfied
